# Tested on: mouse ascites L1210 leukaemia cells
# assay.remarks: Levels of putrescine, spermidine and spermine (polyamine pools) in mouse ascites L1210 leukemia cells (method of Porter et al., HPLC)
# Format: cell-based
# assay.context: test compound 10 μM, 48 h incubation, read-out: level of spermine (SPM), % of the respective control
Outcome label depends on activity at 10 µM relative to 40%: at/above gives true (1), below gives false (0).

# compound, label.class
records = [
    ("C=CCNCCCNC/C=C/CNCCCNCC=C [Example 2]", "false (0)"),
    ("CCCNCCCNC/C=C/CNCCCNCC [Example 9]", "false (0)"),
    ("CCCCNCCCNC/C=C/CNCCCNCC [Example 8]", "false (0)"),
    ("C=CCNCCCNC/C=C/CNCCCNCCC [Example 13]", "false (0)"),
    ("C=CCNCCCNC/C=C/CNCCCNCC [Example 6]", "false (0)"),
    ("CCCNCCCNC/C=C/CNCCCNCCC [Example 1]", "true (1)"),
    ("C(=C\\CNCCCNCC1CC1)/CNCCCNCC1CC1 [Example 16]", "true (1)"),
]
